All figures here come from patent US10941157B2.

For each of the compounds below, state its IC90.
- Test system: Botrtyis cinerea (Bc)
- experimentNotes: In vitro pathogen growth inhibition assay, Bc
- Assay type: cell-based
- testSettings: 48 h, ≥90% growth inhibition; 48 hours; vs 2% DMSO control; read-out: Compound Concentration (ppm) sufficient for ≥90% inhibition of Bc
API: value field is a number in µg/mL; no unit string.

*Q* Consider the compound CCc1ccc(F)cc1[C@H](Cn1c(=O)n(C(C)(C)C(=O)NC(C)C)c(=O)c2c(C)c(-n3nccn3)sc21)OCC(C)(C)C#N [Compound I-279] . State its measured IC90.
*A* 0.08

*Q* Consider the compound COc1ccccc1[C@H](Cn1c(=O)n([C@H](C)C(=O)N(C)C(C)C)c(=O)c2c(C)c(-n3cccn3)sc21)OCCC#N [Compound I-242] . State its measured IC90.
*A* 2

*Q* Consider the compound CCNC(=O)C(C)(C)n1c(=O)c2c(C)c(-n3cccn3)sc2n(C[C@H](OCCC#N)c2cc(F)ccc2OC)c1=O [Compound I-235] . State its measured IC90.
*A* 2

*Q* Consider the compound COc1ccc(F)cc1[C@H](Cn1c(=O)n([C@@H](C)C(=O)N(C)C(C)C)c(=O)c2c(C)c(-n3cccn3)sc21)OCCC#N [Compound I-243] . State its measured IC90.
*A* 10

*Q* Consider the compound COc1ccc(F)cc1CCn1c(=O)n(C(C)(C)C(=O)NC(C)C)c(=O)c2c(C)c(-n3cccn3)sc21 [Compound I-329] . State its measured IC90.
*A* 10

---

- System: Rhizoctonia solani
- experimentNotes: Seed protectant for soybean seedling disease, R. solani
- Format: in vivo
- testSettings: soybean from treated seeds, 0.025 mg/seed, R. solani inoculated; percentage of non-inoculated non-treated controls
Lab note - cut at 80% for Improvement in plant weight: met if strictly below, not met if not.

*Q* # strict comparison: is reported Improvement in plant weight < 80%? input = "COc1ccccc1[C@H](Cn1c(=O)n(C(C)(C)C(=O)NC(C)C)c(=O)c2c(C)c(-n3nccn3)sc21)OCCC#N"
*A* not met

*Q* # strict comparison: is reported Improvement in plant weight < 80%? input = "CCOC(=O)c1sc2c(c1C)c(=O)n(C(C)(C)C(=O)NC(C)C)c(=O)n2C[C@H](OCCC#N)c1cc(F)ccc1OC"
*A* met

*Q* # strict comparison: is reported Improvement in plant weight < 80%? input = "COc1ccc(F)cc1[C@H](Cn1c(=O)n(C(C)(C)C(=O)NC(C)C)c(=O)c2c(C)c(-n3nccn3)sc21)OCCC#N"
*A* not met

*Q* # strict comparison: is reported Improvement in plant weight < 80%? input = "COCCO[C@@H](Cn1c(=O)n(C(C)(C)C(=O)NC(C)C)c(=O)c2c(C)c(-n3nccn3)sc21)c1cc(F)ccc1OC"
*A* met

---

- Test system: Septoria tritici (St)
- experimentNotes: In vitro pathogen growth inhibition assay, St
- Format: cell-based
- testSettings: Zymoseptoria tritici, 48 h, concentration sufficient to ≥90% inhibition of growth; 48 hours vs 2% DMSO control; read-out: Compound Concentration (ppm) for ≥90% inhibition, St
- Protocol: A growth inhibition assay was conducted to determine the ability of compounds to control the growth of fungal pathogens, such as Botrtyis cinerea (Bc), Collectotrichum graminicola (Cg), Diplodia maydis (Dm), Fusarium moniliforme (Fm), Fusarium virguliforme (Fv), Phytophthora capsici (Pc), Rhizoctonia solani (Rs), and Septoria tritici (St). […] Plate readings were repeated at both 24 and 48 hours. […]
For each of the compounds below, state its IC90.

*Q* Consider the compound "CCNC(=O)[C@H](C)n1c(=O)c2c(C)c(-n3cccn3)sc2n(C[C@H](OCCC#N)c2cc(F)ccc2OC)c1=O" . State its measured IC90.
*A* > 50 mg/L

*Q* Consider the compound "COc1ccc(F)cc1[C@@H](Cn1c(=O)n(C(C)(C)C(=O)NC(C)C)c(=O)c2c(C)c(-n3nccn3)sc21)OCCCO" . State its measured IC90.
*A* > 50 mg/L

*Q* Consider the compound "COc1ccc(F)cc1[C@@H](O)Cn1c(=O)n(C(C)(C)C(N)=O)c(=O)c2c(C)c(-n3nccn3)sc21" . State its measured IC90.
*A* > 50 mg/L

*Q* Consider the compound "COc1ccc(F)cc1[C@](O)(CCO)Cn1c(=O)n(C(C)(C)C(=O)NC(C)C)c(=O)c2c(C)c(-n3nccn3)sc21" . State its measured IC90.
*A* > 50 mg/L

*Q* Consider the compound "COc1ccc(F)cc1[C@H](Cn1c(=O)n(C(C)(C)C(=O)NC(C)C)c(=O)c2c(C)c(-n3nccn3)sc21)OCCN(C)C" . State its measured IC90.
*A* > 50 mg/L

*Q* Consider the compound "COc1ccc(F)cc1[C@@H](Cn1c(=O)n(C(C)(C)C(=O)NC(C)C)c(=O)c2c(C)c(-n3nccn3)sc21)OC(C)=O" . State its measured IC90.
*A* > 50 mg/L
